B1: TPR 5TU (parent)
chain: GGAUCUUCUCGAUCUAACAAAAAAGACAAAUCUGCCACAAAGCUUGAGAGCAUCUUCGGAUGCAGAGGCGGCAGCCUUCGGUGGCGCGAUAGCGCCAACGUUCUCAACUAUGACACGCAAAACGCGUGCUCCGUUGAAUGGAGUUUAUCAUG

- Variants of: B1
- assay_method_text: polymerase ribozyme fitness, log enrichment relative to wild type (log ratio); higher = more active; in vitro selection for triplet polymerase activity
Fewer inactive variants are shown than the library holds.
Entries and their polymerase ribozyme fitness (log ratio) values follow.

>  <mutant_designation>
A60C C63U U77C G128U A150G G152A

>  <modifier_sign>
≤

>  <polymerase ribozyme fitness (log ratio)>
-4.2

$$$$
>  <mutant_designation>
A49G G133C

>  <modifier_sign>
=

>  <polymerase ribozyme fitness (log ratio)>
-2.21

$$$$
>  <mutant_designation>
U53A G58A

>  <modifier_sign>
=

>  <polymerase ribozyme fitness (log ratio)>
-0.0533

$$$$
>  <mutant_designation>
C5G C10U C76A C87U G92A

>  <modifier_sign>
=

>  <polymerase ribozyme fitness (log ratio)>
-2.35

$$$$
>  <mutant_designation>
C5G A41U G59C G84A

>  <modifier_sign>
=

>  <polymerase ribozyme fitness (log ratio)>
-2.99

$$$$
>  <mutant_designation>
U61A C69A C85A U139A C149G

>  <modifier_sign>
≤

>  <polymerase ribozyme fitness (log ratio)>
-4.2

$$$$
>  <mutant_designation>
U45G G68U

>  <modifier_sign>
≤

>  <polymerase ribozyme fitness (log ratio)>
-4.2

$$$$
>  <mutant_designation>
C35U A49G G70A C95G C105A

>  <modifier_sign>
≤

>  <polymerase ribozyme fitness (log ratio)>
-4.2

$$$$
>  <mutant_designation>
A52U U139G U144C

>  <modifier_sign>
=

>  <polymerase ribozyme fitness (log ratio)>
-1.12

$$$$
>  <mutant_designation>
C54A C69A G84A G88A

>  <modifier_sign>
≤

>  <polymerase ribozyme fitness (log ratio)>
-4.2

$$$$
>  <mutant_designation>
A73U G84A G92A A122C U134A

>  <modifier_sign>
≤

>  <polymerase ribozyme fitness (log ratio)>
-4.2

$$$$

Taken from the RNAGym collection of RNA variant scans (doi:10.1073/pnas.2313332121).
